Test system: PC-14
Protocol Text: relative viability (nuclei count vs DMSO), 5 days (fraction); higher = more cells survive
Condition Details: first compound 2.53 µM
Could you please report measured relative viability for the items listed next?
One number for each entry.

Some compounds with known relative viability results, for comparison:
INSERT INTO results (compound, reported_metric, test_value) VALUES
  ('Oc1nc(-c2ccc(C(F)(F)F)cc2)nc2c1CSCC2 [XAV939] + CC(=O)Nc1cccc(-n2c(=O)n(C3CC3)c(=O)c3c(Nc4ccc(I)cc4F)n(C)c(=O)c(C)c32)c1 [Trametinib] (partner 0.02 µM)', 'relative viability', 0.597),
  ('C=C1C(=O)O[C@@H](CCCCCCCC)[C@@H]1C(=O)O [C-75] + Cc1nc(Nc2ncc(C(=O)Nc3c(C)cccc3Cl)s2)cc(N2CCN(CCO)CC2)n1 [Dasatinib] (partner 0.075 µM)', 'relative viability', 0.272),
  ('Oc1nc(-c2ccc(C(F)(F)F)cc2)nc2c1CSCC2 [XAV939] + Cc1nc(NC(=O)N2CCC[C@H]2C(N)=O)sc1-c1ccnc(C(C)(C)C(F)(F)F)c1 [Alpelisib] (partner 2 µM)', 'relative viability', 0.796);

Would you kindly look at the next entry?
IN: GET /values?readout=relative viability&system=PC-14&item= Oc1nc(-c2ccc(C(F)(F)F)cc2)nc2c1CSCC2 [XAV939] + C[C@@H](Oc1cc(-c2cnn(C3CCNCC3)c2)cnc1N)c1c(Cl)ccc(F)c1Cl [Crizotinib] (partner 1 µM)
OUT: 0.749

---

Tested on: LOU-NH91
Protocol Text: relative viability (nuclei count vs DMSO), 5 days (fraction); higher = more cells survive
Condition Details: first compound 0.1265 µM
relative viability under 0.8 gets criterion met, anything at or over 0.8 gets criterion not met.

Worked examples follow.
INSERT INTO results (molecule, class) VALUES
  ('O=C(O)c1ccc(-c2c[nH]c3ncc(-c4ccccc4)cc23)cc1C1CCCC1 + O=C(c1cc(Cc2n[nH]c(=O)c3ccccc23)ccc1F)N1CCN(C(=O)C2CC2)CC1 [Olaparib] (partner 8 µM)', 'criterion not met'),
  ('O=C(O)c1ccc(-c2c[nH]c3ncc(-c4ccccc4)cc23)cc1C1CCCC1 + CS(=O)(=O)N1CCN(Cc2cc3nc(-c4cccc5[nH]ncc45)nc(N4CCOCC4)c3s2)CC1 [Pictilisib] (partner 1 µM)', 'criterion met'),
  ('O=C(O)c1ccc(-c2c[nH]c3ncc(-c4ccccc4)cc23)cc1C1CCCC1 + N=C(N)NC(=N)NCCc1ccccc1 [Phenformin] (partner 250 µM)', 'criterion not met'),
  ('O=C(O)c1ccc(-c2c[nH]c3ncc(-c4ccccc4)cc23)cc1C1CCCC1 + O=C(CCCCCCC(=O)Nc1ccccc1)NO [Vorinostat] (partner 1 µM)', 'criterion not met');

IN: Here's an entry: O=C(O)c1ccc(-c2c[nH]c3ncc(-c4ccccc4)cc23)cc1C1CCCC1 + Nc1ncn([C@H]2C[C@H](O)[C@@H](CO)O2)c(=O)n1 [Decitabine] (partner 2 µM) . Is its relative viability below 0.8?
OUT: criterion not met

IN: // next record O=C(O)c1ccc(-c2c[nH]c3ncc(-c4ccccc4)cc23)cc1C1CCCC1 + CC(=O)c1c(C)c2cnc(Nc3ccc(N4CCNCC4)cn3)nc2n(C2CCCC2)c1=O [Palbociclib] (partner 0.5 µM)
OUT: criterion met

---

Test system: HARA
Protocol Text: relative viability (nuclei count vs DMSO), 5 days (fraction); higher = more cells survive
Condition Details: first compound 2.53 µM
Each record is given MET if its reported relative viability is strictly below 0.7. Records at or above 0.7 are given NOT MET.

IN: I'd appreciate it if you could check whether C=C1C(=O)O[C@@H](CCCCCCCC)[C@@H]1C(=O)O [C-75] + NC(=O)Nc1cc(-c2cccc(F)c2)sc1C(=O)N[C@H]1CCCNC1 [AZD7762] (partner 0.2 µM) has relative viability smaller than 0.7.
OUT: MET

IN: Let us now turn to C=C1C(=O)O[C@@H](CCCCCCCC)[C@@H]1C(=O)O [C-75] + Cc1cc(Nc2cc(N3CCN(C)CC3)nc(Sc3ccc(NC(=O)C4CC4)cc3)n2)n[nH]1 [Tozasertib] (partner 0.1 µM)
OUT: MET

IN: Quick one: C=C1C(=O)O[C@@H](CCCCCCCC)[C@@H]1C(=O)O [C-75] + O=C(CCCCCCC(=O)Nc1ccccc1)NO [Vorinostat] (partner 1 µM)
OUT: MET

IN: Same read-out for Oc1nc(-c2ccc(C(F)(F)F)cc2)nc2c1CSCC2 [XAV939] + COc1cc2c(Oc3ccc(NC(=O)C4(C(=O)Nc5ccc(F)cc5)CC4)cc3F)ccnc2cc1OCCCN1CCOCC1 [Foretinib] (partner 0.25 µM) ?
OUT: MET

IN: What do you get for Oc1nc(-c2ccc(C(F)(F)F)cc2)nc2c1CSCC2 [XAV939] + CS(=O)(=O)N1CCN(Cc2cc3nc(-c4cccc5[nH]ncc45)nc(N4CCOCC4)c3s2)CC1 [Pictilisib] (partner 1 µM) ?
OUT: MET

IN: Same read-out for C=C1C(=O)O[C@@H](CCCCCCCC)[C@@H]1C(=O)O [C-75] + COc1cc2c(Oc3ccc(NC(=O)C4(C(=O)Nc5ccc(F)cc5)CC4)cc3F)ccnc2cc1OCCCN1CCOCC1 [Foretinib] (partner 0.25 µM) ?
OUT: NOT MET

---

Tested on: ABC-1
Protocol Text: relative viability (nuclei count vs DMSO), 5 days (fraction); higher = more cells survive
Condition Details: first compound 1.265 µM
Reported Metric: relative viability

INSERT INTO results (molecule, test_value) VALUES
  ('O=C(O)c1ccc(-c2c[nH]c3ncc(-c4ccccc4)cc23)cc1C1CCCC1 + O=C(CCCCCCC(=O)Nc1ccccc1)NO [Vorinostat] (partner 1 µM)', 0.985),
  ('O=C(O)c1ccc(-c2c[nH]c3ncc(-c4ccccc4)cc23)cc1C1CCCC1 + C[C@@H](Oc1cc(-c2cnn(C3CCNCC3)c2)cnc1N)c1c(Cl)ccc(F)c1Cl [Crizotinib] (partner 1 µM)', 0.98),
  ('O=C(O)c1ccc(-c2c[nH]c3ncc(-c4ccccc4)cc23)cc1C1CCCC1 + Cc1cc(Nc2cc(N3CCN(C)CC3)nc(Sc3ccc(NC(=O)C4CC4)cc3)n2)n[nH]1 [Tozasertib] (partner 0.1 µM)', 0.18),
  ('O=C(O)c1ccc(-c2c[nH]c3ncc(-c4ccccc4)cc23)cc1C1CCCC1 + CS(=O)(=O)CCNCc1ccc(-c2ccc3ncnc(Nc4ccc(OCc5cccc(F)c5)c(Cl)c4)c3c2)o1 [Lapatinib] (partner 2 µM)', 1.52);

Hi team, please reply with relative viability for each item in this list.
1. O=C(O)c1ccc(-c2c[nH]c3ncc(-c4ccccc4)cc23)cc1C1CCCC1 + N=C(N)NC(=N)NCCc1ccccc1 [Phenformin] (partner 250 µM)
2. O=C(O)c1ccc(-c2c[nH]c3ncc(-c4ccccc4)cc23)cc1C1CCCC1 + C[C@]1(O)C[C@@H](c2nc(-c3ccc4ccc(-c5ccccc5)nc4c3)c3c(N)nccn32)C1 [Linsitinib] (partner 1 µM)

OUT:
[0.181, 0.716]

---

Tested on: NCI-H647
Protocol Text: relative viability (nuclei count vs DMSO), 5 days (fraction); higher = more cells survive
Condition Details: first compound 8 µM
The threshold is 0.4. Values of relative viability beneath it are tagged Fulfilled; values meeting or exceeding it are tagged Not fulfilled.

Examples from the recorded data:
INSERT INTO results (molecule, class) VALUES
  ('C=C1C(=O)O[C@@H](CCCCCCCC)[C@@H]1C(=O)O [C-75] + CC(C)C[C@H](NC(=O)[C@H](Cc1ccccc1)NC(=O)c1cnccn1)B(O)O [Bortezomib] (partner 0.002 µM)', 'Not fulfilled'),
  ('C=C1C(=O)O[C@@H](CCCCCCCC)[C@@H]1C(=O)O [C-75] + CCNC(=O)c1noc(-c2cc(C(C)C)c(O)cc2O)c1-c1ccc(CN2CCOCC2)cc1 [Luminespib] (partner 0.01 µM)', 'Fulfilled'),
  ('C=C1C(=O)O[C@@H](CCCCCCCC)[C@@H]1C(=O)O [C-75] + CC(=O)Nc1cccc(-n2c(=O)n(C3CC3)c(=O)c3c(Nc4ccc(I)cc4F)n(C)c(=O)c(C)c32)c1 [Trametinib] (partner 0.02 µM)', 'Fulfilled'),
  ('C=C1C(=O)O[C@@H](CCCCCCCC)[C@@H]1C(=O)O [C-75] + C[C@@H](Oc1cc(-c2cnn(C3CCNCC3)c2)cnc1N)c1c(Cl)ccc(F)c1Cl [Crizotinib] (partner 1 µM)', 'Not fulfilled');

IN: Record C=C1C(=O)O[C@@H](CCCCCCCC)[C@@H]1C(=O)O [C-75] + O=C(c1cc(Cc2n[nH]c(=O)c3ccccc23)ccc1F)N1CCN(C(=O)C2CC2)CC1 [Olaparib] (partner 8 µM) : is its relative viability strictly below 0.4?
OUT: Fulfilled
